molecular target: MMP-13 (Homo sapiens); assay: MMP-13 inhibition (thiopeptide or fluorescent peptide substrate); format: biochemical
Where a name gives a salt, the structure may show the parent alone.
Give pIC50 for every item shown.
One number for each entry, as −log10 of the molar value.

These recorded examples may help you get a feel for the data.
Query pIC50 for COc1ccc(S(=O)(=O)N(Cc2ccccc2)c2c(C(=O)NO)cnc3ccc([N+](=O)[O-])cc23)cc1 6.33

Indicate its recorded pIC50; the compound in question is COc1ccc(S(=O)(=O)N(Cc2ccccc2)c2c(C(=O)NO)cnc3c(C)cccc23)cc1 7.59

Complete the entry with pIC50 for COc1ccc(S(=O)(=O)N(Cc2ccccc2)c2c(C(=O)NO)cnc3c(C(F)(F)F)cccc23)cc1 9.00

Identify measured pIC50 corresponding to COc1ccc(S(=O)(=O)N(Cc2ccccc2)c2c(C(=O)NO)cnc3ccc(Br)cc23)cc1 8.05

Item COc1ccc(S(=O)(=O)N(Cc2cccnc2)c2c(C(=O)NO)cnc3c(-c4ccccc4)cccc23)cc1 : provide pIC50 8.40

List pIC50 for every entry below, keeping the order given.
1. COc1ccc(S(=O)(=O)N(Cc2cccnc2)c2c(C(=O)NO)cnc3c(Br)cccc23)cc1
2. COc1ccc(S(=O)(=O)N(Cc2ccccc2)c2c(C(=O)NO)cnc3cc(Br)ccc23)cc1
3. CCN(c1c(C(=O)NO)cnc2ccc(C#Cc3ccccc3)cc12)S(=O)(=O)c1ccc(OC)cc1
4. COc1ccc(S(=O)(=O)N(Cc2cccnc2)c2c(C(=O)NO)cnc3cc(C)nn23)cc1
5. COc1ccc(S(=O)(=O)N(Cc2ccccc2)c2c(C(=O)NO)cnc3cc(C(F)(F)F)ccc23)cc1
6. COc1ccc(S(=O)(=O)N(C)c2c(C(=O)NO)cnc3c(Br)cccc23)cc1
7. C=Cc1cccc2c(N(CC)S(=O)(=O)c3ccc(OC)cc3)c(C(=O)NO)cnc12

9.00
8.22
7.92
7.73
8.15
8.70
8.40

Give pIC50 for each of the items listed below.
1. CN(c1c(C(=O)NO)cnc2c1c(-c1ccccc1)nn2C)S(=O)(=O)c1ccc(Oc2ccncc2)cc1
2. COc1ccc(S(=O)(=O)N(Cc2cccnc2)c2c(C(=O)NO)cnc3c2cnn3-c2ccccc2)cc1 [Example 64, hydrochloride]
3. COc1ccc(S(=O)(=O)N(Cc2cccnc2)c2c(C(=O)NO)cnc3c(Cc4ccccc4)cccc23)cc1

1. 8.41
2. 7.72
3. 8.52

* * *

molecular target: MMP-9 (Homo sapiens); assay: MMP-9 inhibition (thiopeptide or fluorescent peptide substrate); format: biochemical; conditions: read-out: MMP-9 IC50
Sequence (P14780 94-707): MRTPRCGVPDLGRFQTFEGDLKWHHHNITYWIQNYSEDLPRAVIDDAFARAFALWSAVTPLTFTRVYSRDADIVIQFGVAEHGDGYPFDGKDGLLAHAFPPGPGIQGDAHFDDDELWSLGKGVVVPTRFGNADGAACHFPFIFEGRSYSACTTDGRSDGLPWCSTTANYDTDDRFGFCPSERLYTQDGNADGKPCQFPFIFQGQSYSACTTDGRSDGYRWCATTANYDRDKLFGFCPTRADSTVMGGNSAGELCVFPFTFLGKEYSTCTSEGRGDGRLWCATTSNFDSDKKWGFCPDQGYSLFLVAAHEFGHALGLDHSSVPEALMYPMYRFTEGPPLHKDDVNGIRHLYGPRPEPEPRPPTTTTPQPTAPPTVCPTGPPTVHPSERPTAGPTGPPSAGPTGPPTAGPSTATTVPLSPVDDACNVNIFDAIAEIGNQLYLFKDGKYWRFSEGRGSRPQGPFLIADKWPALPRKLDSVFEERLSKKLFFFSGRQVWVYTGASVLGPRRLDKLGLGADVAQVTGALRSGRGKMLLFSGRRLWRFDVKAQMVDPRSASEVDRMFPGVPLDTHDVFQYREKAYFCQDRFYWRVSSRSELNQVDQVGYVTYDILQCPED
Structures can show the parent of a compound that is named as a salt.
reported-property: IC50
Please answer in the form of a number followed by its unit of measurement.

# return recorded IC50 for input COc1ccc(S(=O)(=O)N(Cc2ccccc2)c2c(C(=O)NO)cnc3ccc(Br)cc23)cc1 15 nM

For the compound COc1ccc(S(=O)(=O)N(Cc2cccnc2)c2c(C(=O)NO)cnc3c2cnn3-c2ccccc2)cc1 [Example 63] , give its measured IC50 value. 6.8 nM

Give a short answer stating reported IC50 for COc1ccc(S(=O)(=O)N(Cc2ccccc2)c2c(C(=O)NO)cnc3c2cnn3-c2ccccc2)cc1 . 5.7 nM

Identify IC50 associated with the compound COc1ccc(S(=O)(=O)N(Cc2cccnc2)c2c(C(=O)NO)cnc3c(-c4ccccc4)cccc23)cc1 3 nM

Specify measured IC50 for O=C(NO)c1cnc2cc(C(F)(F)F)ccc2c1N(Cc1cccnc1)S(=O)(=O)c1ccc(-c2ccccc2)cc1 . 874 nM

Output measured IC50 for this item: COc1ccc(S(=O)(=O)N(Cc2cccnc2)c2c(C(=O)NO)cnc3c2cnn3-c2ccccc2)cc1 [Example 64, hydrochloride] 5.5 nM

Quick one: give measured IC50 for COc1ccc(S(=O)(=O)N(Cc2ccccc2)c2c(C(=O)NO)cnc3c(C(F)(F)F)cccc23)cc1 2 nM

Read the entry C=Cc1cccc2c(N(CC)S(=O)(=O)c3ccc(OC)cc3)c(C(=O)NO)cnc12 and write its reported IC50. 5 nM

Tell me IC50 reported for COc1ccc(S(=O)(=O)N(Cc2cccnc2)c2c(C(=O)NO)cnc3cc(C)nn23)cc1 10.4 nM

// fetch IC50 given entry COc1ccc(S(=O)(=O)N(Cc2cccnc2)c2c(C(=O)NO)cnc3c(Br)cccc23)cc1 2 nM

Look at each compound and report its IC50.
1. CCN(c1c(C(=O)NO)cnc2ccc(C#Cc3ccccc3)cc12)S(=O)(=O)c1ccc(OC)cc1
2. CCc1cccc2c(N(Cc3ccccc3)S(=O)(=O)c3ccc(OC)cc3)c(C(=O)NO)cnc12
3. COc1ccc(S(=O)(=O)N(Cc2cccnc2)c2c(C(=O)NO)cnc3c(OC)cccc23)cc1
4. Cc1nsc2ncc(C(=O)NO)c(N(C)S(=O)(=O)c3ccc(Oc4ccncc4)cc3)c12
5. Cc1noc2ncc(C(=O)NO)c(N(C)S(=O)(=O)c3ccc(Oc4ccncc4)cc3)c12
6. COc1ccc(S(=O)(=O)N(Cc2cccnc2)c2c(C(=O)NO)cnc3onc(C)c23)cc1
7. COc1ccc(S(=O)(=O)N(Cc2ccccc2)c2c(C(=O)NO)cnc3c2c(C)nn3-c2ccccc2)cc1

1. 9 nM
2. 2 nM
3. 2 nM
4. 12 nM
5. 3 nM
6. 8.9 nM
7. 0.81 nM
